System: bombesin receptor
Assay: competitive binding assay, 125I-Bombesin, rat brain membranes
Conditions: inhibition of 0.01 nM 125I-Bombesin binding; rat brain membranes; test concentration not given
Method: Rat brain membranes were utilized as the source of bombesin receptor. […] The filters were dried and counted in a gamma counter for retained radioactivity. Non-specific binding was measured by including 1 μM Bombesin in the assay tube. The assay was performed in triplicate and results calculated to determine percentage inhibition of the ^125I-Bombesin binding to its receptors by a test compound. […]
Square brackets hold non-standard residues; d marks the D form. Ends that are not written are not given here. Nle = CCCC[C@H](N)C(=O)O
Below is a list of entries, each paired with its recorded % Inhibition value.
readout: % Inhibition (%)

| substance | readout | valueMeasured |
| --- | --- | --- |
| Ac-Ala-Gln-Cys-Arg-Leu-Gly-Asn-Gln-Trp-Ala-Val-Gly-His-Leu-Nle-NH2 (Ac-AQCRLGNQWAVGHL[Nle]-NH2; also: oxorhenium(V) N3S1 tetradentate complex via Cys) [6-13] | % Inhibition | 99 |
| Pyr-Gln-Arg-Leu-Gly-Asn-Gln-Trp-Ala-Cys-Gly-His-Leu-Nle-NH2 (QRLGNQWACGHL; N-terminal pyroglutamate; C-terminal Nle-amide; printed: Gln-Arg-Leu-Gly-Asn-Gln-Trp-Ala-Cys-Gly-His-Leu-) [7-5] | % Inhibition | 61 |
| D-Phe-Gln-Trp-Ala-Cys-Val-His-Leu-Leu-NH2 ([dF]QWACVHLL-NH2; also: rhenium complex (oxorhenium(V) N3S1 chelate via Cys)) [12-2] | % Inhibition | 3 |
| Pyr-Gln-Arg-Leu-Gly-Asn-Gln-Cys-Ala-Val-Gly-His-Leu-Nle-NH2 (QRLGNQCAVGHL; N-term pyroglutamate; Nle-NH2; rhenium complex; printed: Gln-Arg-Leu-Gly-Asn-Gln-Cys-Ala-Val-Gly-His-Leu-) [7-7] | % Inhibition | −2 |
| D-Phe-Gln-Trp-Val-Cys-His-Leu-Leu-NH2 ([dF]QWVCHLL-NH2; also: oxorhenium(V) N3S1 chelate complex (Re=O)) [12-4] | % Inhibition | 5 |
| Trp-Ala-Val-Cys-His-NH2 (WAVCH-NH2; not fully specified (bridges); printed as Trp-Ala-Val-Cys-His-NH2; also: oxorhenium(V) N3S1 chelate (Re=O) with Cys) [11-11] | % Inhibition | −1 |
| D-Phe-Gln-Trp-Ala-Cys-Val-Gly-His-Leu-Leu-NH2 ([dF]QWACVGHLL-NH2; also: oxorhenium(V) N3S1 chelate via Cys (Re(V)=O)) [8-6] | % Inhibition | 35 |
| D-Phe-Gln-Trp-Val-Cys-Val-His-Leu-Leu-NH2 ([dF]QWVCVHLL-NH2; not fully specified (bridges); printed as D-Phe-Gln-Trp-Val-Cys-Val-His-Leu-Leu-NH2; also: oxorhenium(V) N3S1 chelate complex (Re=O)) [12-3] | % Inhibition | 14 |
| D-Phe-Gln-D-Trp-Ala-Val-Cys-His-Leu-Leu-NH2 ([dF]Q[dW]AVCHLL-NH2; numbers in words are those of the source; also: oxorhenium(V) N3S1 tetradentate complex via Cys) [10-5] | % Inhibition | 6 |
